Test: Oral bioavailability in cynomolgus monkey at 10 mg/kg
Format: ADME, organism-based, Macaca fascicularis
Settings: in vivo
quantity kind: bioavailability (%)
Give the quantity in %, number only.

For CN(C)C(=O)Cn1cc(-c2nc([C@@](C)(c3ccc(-c4cnc(N)nc4)cc3)C3CC3)no2)cn1 [BI 665915] , what is its reported bioavailability?
45

====

Experiment: Plasma concentration in C57BL/6 mouse at 30 mg/kg, po after 2 hrs
Type: ADME, organism-based
Set-up: dose 30 mg/kg, route oral
quantity kind: concentration at 2 h

Find the recorded concentration at 2 h belonging to `CN(C)C(=O)Cn1cc(-c2nc([C@@](C)(c3ccc(-c4cnc(N)nc4)cc3)C3CC3)no2)cn1` and report it.
20.7 µM
